Reference source: patent US11840686B2

# Tested on: human PKK mRNA
# assay: Antisense inhibition of human PKK mRNA in HepaRG cells, 1,000 nM, MOE/deoxy/cEt oligonucleotides (Example 3)
# Type: cell-based
# test-conditions: HepaRG cells, 1,000 nM antisense oligonucleotide, Table 29
Strand notation (5' to 3'): a small letter for the sugar, then the base; units joined by * are phosphorothioate-linked, units joined directly phosphodiester-linked; [ ] holds rarer units or linkages, { } end groups; capitals alone tell only the bases. e = 2'-O-(2-methoxyethyl) (MOE); k = constrained ethyl (cEt); [5mC] = 5-methylcytosine; d = 2'-deoxy (DNA)
Provide the reported % inhibition of each item.
State just the number; it will be interpreted in %.

**Q:** Any idea what its % inhibition is? The substance is 548559 (antisense eG*eA*kG*dA*d[5mC]*dT*dG*dA*dA*dG*d[5mC]*d[5mC]*d[5mC]*kT*k[5mC]*eA) [compound 548559]
**A:** 44

**Q:** Repeat for the following substance: 548565 (antisense eG*eG*k[5mC]*dA*dT*dT*dA*dG*dG*dA*dT*dA*dG*kG*k[5mC]*eA) [compound 548565]
**A:** 63

**Q:** Repeat for the following substance: 548571 (eA*e[5mC]*kT*d[5mC]*dT*dG*dA*dG*dG*d[5mC]*d[5mC]*dT*dT*kA*kG*eG; antisense) [compound 548571]
**A:** 59

----------
# System: human PKK mRNA
# assay: Antisense inhibition of human PKK mRNA in HepaRG cells, 1,000 nM, MOE/deoxy/cEt oligonucleotides (Example 3)
# Assay type: cell-based
# test-conditions: Table 20; HepaRG cells, electroporation with 1,000 nM antisense oligonucleotide, approximately 24 hours; PKK mRNA by RT-PCR (RTS3454), relative to untreated control cells
Strand notation (5' to 3'): a small letter for the sugar, then the base; units joined by * are phosphorothioate-linked, units joined directly phosphodiester-linked; [ ] holds rarer units or linkages, { } end groups; capitals alone tell only the bases. e = 2'-O-(2-methoxyethyl) (MOE); k = constrained ethyl (cEt); [5mC] = 5-methylcytosine; d = 2'-deoxy (DNA)
The following ranges of % inhibition define the classes used here: lower = under 60%, middle = from 60% up to 80%, upper = 80% and over

**Q:** Just checking, what class would you give 547899 (eG*eT*kA*d[5mC]*dT*dT*dT*dA*dA*dT*dA*dG*dG*k[5mC]*kA*eA; antisense) [compound 547899] here?
**A:** lower

**Q:** Repeat for the following substance: 547747 (eT*e[5mC]*kA*d[5mC]*dT*dG*dT*dA*d[5mC]*dT*dA*dG*dT*kT*kT*e[5mC]) [compound 547747]
**A:** upper

**Q:** Repeat for the following substance: 547894 (eG*eG*k[5mC]*dA*dA*dT*dT*dG*dT*dT*d[5mC]*d[5mC]*dG*kG*kT*eA; antisense) [compound 547894]
**A:** upper

**Q:** Repeat for the following substance: 547880 (eT*eT*k[5mC]*dA*dA*d[5mC]*dA*d[5mC]*dT*dG*d[5mC]*dT*dA*kA*k[5mC]*e[5mC]; antisense) [compound 547880]
**A:** middle

**Q:** Repeat for the following substance: 547898 (e[5mC]*eT*kT*dT*dA*dA*dT*dA*dG*dG*d[5mC]*dA*dA*kT*kT*eG; antisense) [compound 547898]
**A:** lower

**Q:** Repeat for the following substance: 547843 (antisense e[5mC]*eA*k[5mC]*dT*dT*dA*dT*dT*dT*dG*dA*dT*dG*kA*k[5mC]*e[5mC]) [compound 547843]
**A:** upper

**Q:** Repeat for the following substance: 547864 (antisense eT*eT*kG*dA*d[5mC]*dT*d[5mC]*d[5mC]*dT*d[5mC]*dT*d[5mC]*dA*kT*kA*eT) [compound 547864]
**A:** lower

**Q:** Repeat for the following substance: 547910 (eA*e[5mC]*k[5mC]*dA*dA*dT*dT*dT*d[5mC]*dT*dG*dA*dA*kA*kG*eG; antisense) [compound 547910]
**A:** lower

**Q:** Repeat for the following substance: 547860 (antisense eT*e[5mC]*k[5mC]*dT*d[5mC]*dT*d[5mC]*dA*dT*dA*dT*d[5mC]*dA*kA*k[5mC]*eT) [compound 547860]
**A:** middle

**Q:** Repeat for the following substance: 547882 (e[5mC]*eT*kG*dG*d[5mC]*dA*dG*d[5mC]*dG*dA*dA*dT*dG*kT*kT*eA; antisense) [compound 547882]
**A:** upper

**Q:** Repeat for the following substance: 547870 (antisense e[5mC]*eT*kA*dA*d[5mC]*d[5mC]*dT*dT*dA*dG*dA*d[5mC]*dA*k[5mC]*kA*eT) [compound 547870]
**A:** upper

**Q:** Repeat for the following substance: 547904 (eA*e[5mC]*kT*d[5mC]*dA*dG*d[5mC]*dA*d[5mC]*d[5mC]*dT*dT*dT*kA*kT*eA; antisense) [compound 547904]
**A:** lower

----------
# Test system: human PKK mRNA
# assay: Antisense inhibition of human PKK mRNA in HepaRG cells, 1,000 nM, MOE/deoxy/cEt oligonucleotides (Example 3)
# Type: cell-based
# test-conditions: Table 28; HepaRG cells, 1,000 nM antisense oligonucleotide; human PKK mRNA
Strand notation (5' to 3'): a small letter for the sugar, then the base; units joined by * are phosphorothioate-linked, units joined directly phosphodiester-linked; [ ] holds rarer units or linkages, { } end groups; capitals alone tell only the bases. e = 2'-O-(2-methoxyethyl) (MOE); k = constrained ethyl (cEt); [5mC] = 5-methylcytosine; d = 2'-deoxy (DNA)
Provide the reported % inhibition of each item.
State just the number; it will be interpreted in %.

**Q:** Any idea what its % inhibition is? The substance is 548525 (antisense eG*eT*k[5mC]*dT*dA*dA*d[5mC]*dT*dG*dG*d[5mC]*d[5mC]*dT*kG*kG*e[5mC]) [compound 548525]
**A:** 2

**Q:** Repeat for the following substance: 548479 (eA*eG*kG*d[5mC]*d[5mC]*dA*dT*dT*dT*dG*dA*dT*d[5mC]*k[5mC]*kG*eA; antisense) [compound 548479]
**A:** 68

**Q:** Repeat for the following substance: 548493 (antisense e[5mC]*e[5mC]*kA*d[5mC]*d[5mC]*dG*d[5mC]*dT*dG*d[5mC]*d[5mC]*d[5mC]*dG*k[5mC]*k[5mC]*eA) [compound 548493]
**A:** 37

**Q:** Repeat for the following substance: 548511 (antisense eA*eG*k[5mC]*dT*dA*dG*d[5mC]*dT*dG*dA*d[5mC]*d[5mC]*d[5mC]*k[5mC]*kA*eA) [compound 548511]
**A:** 16

----------
# Test system: human PKK mRNA
# assay: Antisense inhibition of human PKK mRNA in HepaRG cells, 1,000 nM, MOE/deoxy/cEt oligonucleotides (Example 3)
# Format: cell-based
# test-conditions: Table 30; human PKK mRNA, HepaRG cells, 1,000 nM antisense oligonucleotide
Strand notation (5' to 3'): a small letter for the sugar, then the base; units joined by * are phosphorothioate-linked, units joined directly phosphodiester-linked; [ ] holds rarer units or linkages, { } end groups; capitals alone tell only the bases. e = 2'-O-(2-methoxyethyl) (MOE); k = constrained ethyl (cEt); [5mC] = 5-methylcytosine; d = 2'-deoxy (DNA)
Provide the reported % inhibition of each item.
Answer format: number, then unit.

**Q:** Any idea what its % inhibition is? The substance is 548435 (antisense eA*eA*k[5mC]*dA*dA*dT*dA*dT*d[5mC]*dA*d[5mC]*dT*dG*kT*kA*e[5mC]) [compound 548435]
**A:** 19%

**Q:** Repeat for the following substance: 548386 (eA*eG*k[5mC]*d[5mC]*d[5mC]*dT*dG*dT*dT*dT*dG*dG*dT*kT*kT*eT; antisense) [compound 548386]
**A:** 0%

**Q:** Repeat for the following substance: 548455 (e[5mC]*eA*k[5mC]*d[5mC]*dG*dT*dA*d[5mC]*dT*dA*dG*dT*dT*kT*k[5mC]*e[5mC]; antisense) [compound 548455]
**A:** 64%

**Q:** Repeat for the following substance: 548458 (eA*e[5mC]*k[5mC]*dT*dA*dT*dA*dA*d[5mC]*dT*dA*dT*dA*kA*k[5mC]*eA; antisense) [compound 548458]
**A:** 0%

**Q:** Repeat for the following substance: 548416 (antisense e[5mC]*eT*kA*dT*dA*dA*d[5mC]*dT*d[5mC]*dT*dA*dA*d[5mC]*kA*kG*eT) [compound 548416]
**A:** 9%

**Q:** Repeat for the following substance: 548395 (eA*eT*k[5mC]*d[5mC]*dT*dT*d[5mC]*d[5mC]*d[5mC]*d[5mC]*dT*d[5mC]*dG*k[5mC]*kA*eA; antisense) [compound 548395]
**A:** 0%

**Q:** Repeat for the following substance: 548426 (antisense eT*eA*kT*dA*dA*d[5mC]*dA*dG*dT*dA*dT*d[5mC]*dA*k[5mC]*kT*eG) [compound 548426]
**A:** 14%

**Q:** Repeat for the following substance: 548449 (eA*eT*k[5mC]*dA*d[5mC]*dT*dG*dT*d[5mC]*d[5mC]*dT*dA*dT*kG*kT*e[5mC]; antisense) [compound 548449]
**A:** 62%

**Q:** Repeat for the following substance: 548391 (eG*eT*kA*d[5mC]*dA*dT*dG*dA*d[5mC]*dT*d[5mC]*d[5mC]*dA*kG*kT*eG; antisense) [compound 548391]
**A:** 34%

**Q:** Repeat for the following substance: 548398 (eA*eT*kA*dG*dG*d[5mC]*dA*dA*dT*dT*dG*dT*dT*k[5mC]*k[5mC]*eT; antisense) [compound 548398]
**A:** 55%

**Q:** Repeat for the following substance: 548419 (antisense e[5mC]*e[5mC]*kT*dA*dT*dA*dT*d[5mC]*dA*d[5mC]*dT*dG*dT*k[5mC]*k[5mC]*eT) [compound 548419]
**A:** 52%

**Q:** Repeat for the following substance: 548456 (eT*eA*kT*dA*dA*d[5mC]*dA*dG*dT*dA*dT*d[5mC]*dA*k[5mC]*k[5mC]*eG; antisense) [compound 548456]
**A:** 52%

**Q:** Repeat for the following substance: 548437 (antisense eT*eA*kT*dA*dT*d[5mC]*dA*d[5mC]*dT*dG*dT*dA*d[5mC]*k[5mC]*kT*eG) [compound 548437]
**A:** 74%

**Q:** Repeat for the following substance: 548421 (antisense e[5mC]*eA*k[5mC]*dT*dG*dT*d[5mC]*d[5mC]*dT*dA*dT*dA*dT*k[5mC]*kA*e[5mC]) [compound 548421]
**A:** 56%

**Q:** Repeat for the following substance: 548388 (eA*eA*kG*dA*dG*dG*dA*dT*dG*dT*d[5mC]*dA*dG*kG*k[5mC]*eT; antisense) [compound 548388]
**A:** 4%

**Q:** Repeat for the following substance: 548420 (antisense eT*e[5mC]*k[5mC]*dT*dA*dT*dA*dT*d[5mC]*dA*d[5mC]*dT*dG*kT*k[5mC]*e[5mC]) [compound 548420]
**A:** 58%

**Q:** Repeat for the following substance: 548387 (eT*eG*kA*dA*dG*dG*dG*d[5mC]*dG*dA*dG*dG*d[5mC]*kG*k[5mC]*eA; antisense) [compound 548387]
**A:** 22%

**Q:** Repeat for the following substance: 548406 (eT*e[5mC]*kT*dA*dG*dA*dG*dG*d[5mC]*d[5mC]*dG*d[5mC]*d[5mC]*kT*kG*e[5mC]; antisense) [compound 548406]
**A:** 0%
